We begin with a simple list: items and their reported IC50.
testedSystem: human plasma kallikrein (Homo sapiens)
Sequence (P03952 391-638 limits assumed): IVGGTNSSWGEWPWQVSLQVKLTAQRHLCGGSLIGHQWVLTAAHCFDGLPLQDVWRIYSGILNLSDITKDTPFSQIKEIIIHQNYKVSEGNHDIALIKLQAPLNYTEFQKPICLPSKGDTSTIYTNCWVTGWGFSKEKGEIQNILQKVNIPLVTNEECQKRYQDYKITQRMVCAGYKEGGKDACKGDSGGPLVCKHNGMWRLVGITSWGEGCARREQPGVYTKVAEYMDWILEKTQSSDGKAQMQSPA
Sequence (P03952 20-390 partner limits assumed): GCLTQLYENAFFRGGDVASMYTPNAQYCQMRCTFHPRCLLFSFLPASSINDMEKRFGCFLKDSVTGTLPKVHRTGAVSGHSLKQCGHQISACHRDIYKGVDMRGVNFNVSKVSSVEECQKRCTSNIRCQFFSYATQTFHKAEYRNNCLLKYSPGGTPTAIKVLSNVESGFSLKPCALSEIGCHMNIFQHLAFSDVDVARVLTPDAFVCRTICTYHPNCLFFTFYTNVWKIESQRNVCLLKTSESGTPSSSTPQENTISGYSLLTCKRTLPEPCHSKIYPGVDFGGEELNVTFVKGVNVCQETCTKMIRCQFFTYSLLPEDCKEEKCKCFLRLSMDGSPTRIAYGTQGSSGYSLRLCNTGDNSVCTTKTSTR
methodSummary: Kallikrein inhibition FLINT assay with quenched AMC peptide substrate Z-Gly-Pro-Arg-AMC (end point EP or kinetic KIN reads)
Assay type: biochemical
experimentalConditions: kinetic reads at 5 min intervals over 30 min; read-out: Kallikrein (KIN) IC50

compound	testedSystem	IC50
NC(=O)c1scc(-c2cnn(C(CC3CC3)c3ccc(-c4c(-n5cnnn5)ccc(Cl)c4F)c[n+]3[O-])c2)c1F (single isomer, unassigned) [Example P953]	human plasma kallikrein (Homo sapiens)	13.4 nM
[O-][n+]1cc(-c2c(-n3cnnn3)ccc(Cl)c2F)ccc1[C@@H](Cc1cnn(C(F)F)n1)n1cc(-c2ccnc(C(F)(F)F)c2)cn1	human plasma kallikrein (Homo sapiens)	19.1 nM
O=C(O)c1ccc(-c2cnn(C(Cc3ncco3)c3ccc(-c4c(-n5cc(C(F)(F)F)nn5)ccc(Cl)c4F)c[n+]3[O-])c2)cc1F (stereo not drawn)	human plasma kallikrein (Homo sapiens)	11.8 nM
